experimental-target: T1, Carica papaya papain (Carica papaya, UniProt P00784 134-345)
T1 construct: source: bought: Merck
T1 sequence (looked up): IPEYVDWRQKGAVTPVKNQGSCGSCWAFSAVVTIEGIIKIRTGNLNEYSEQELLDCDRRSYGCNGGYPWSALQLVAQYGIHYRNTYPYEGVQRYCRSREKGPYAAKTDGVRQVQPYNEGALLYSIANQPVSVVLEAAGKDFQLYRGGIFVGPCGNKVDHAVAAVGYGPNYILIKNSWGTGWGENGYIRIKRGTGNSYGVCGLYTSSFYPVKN
assay-text: enzyme inhibition kinetics (fluorogenic peptide substrate activity assay); inhibitor preincubated with protease 15 min, 37 °C; IC50 from residual velocities, Ki by the Cheng-Prusoff equation; 50 mM sodium acetate pH 5.5, 0.1% polyethylene glycol 1500, 2.5 mM dithiothreitol (cathepsins L, K, V, B, F, C and papain; 50 mM NaCl for cathepsin C)
condition-details: both partners purified
readout-kind: pKi
Reminder that pKi is minus the log10 of a molar concentration.

Query: State the recorded pKi for this entry: IrThy-Nd, recombinant N-terminal Tg1 domain of IrThy (domain or fragment) SNAASVPTRVANHGASRPLSDCEQRKQREERNTGPLAIHIECNPDGSYKPMQCFGNPDQPRRMCACYDQEYDQIKAPSRQLKSCK
Reply: 6.81

FYI, the data here is from paper PMC10889554.
